test: compound binding in COS7 lysate, probe aLAP1, primary screen, cell lysate, small-molecule microarray (AID 1124); settings: probe aLAP1, fluorescence, higher = more signal;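 note: lysate comes from COS7 cells expressing LAP1 and is applied at 0.3 µg/mL; score merges spot fluorescence near 667 nm with signal-to-noise over triplicate slides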
measuredEndpoint: composite z-score
Give the figure only, with no unit attached.

Would you please look over these solved cases?
| molecule | measuredEndpoint | resultValue |
| --- | --- | --- |
| C=CC[C@@H](OC(=O)Nc1ccc(SC)cc1)c1ccc(OCCO)cc1 | composite z-score | 0.105 |
| C=CCC(OC(C)=O)[C@@H]1[C@@H](N(Cc2cccc3ccccc23)C(=O)Cc2ccc(OC)cc2)c2cc(OCCCO)ccc2N1C(=O)Cc1ccc(OC)cc1 (stereo not given in full) | composite z-score | 0.163 |
| CC(C)[Si](C#C[Si](C(C)C)(C(C)C)C(C)C)(O[C@H](C)c1cn([C@H](C)c2ccccc2)nn1)C(C)C | composite z-score | -0.13 |
| Cc1ccc(N2C(=O)c3ccccc3[C@](C)(C(=O)NC3CC3)[C@@H]2c2ccc(CO)cc2)nc1 | composite z-score | 1.18 |
| CCCNC(=O)[C@@H]1c2ccccc2C(=O)N(Cc2cc(C(F)(F)F)cc(C(F)(F)F)c2)[C@H]1c1ccc(CO)cc1 | composite z-score | 0.227 |
| COc1ccc(C#Cc2ccc3c(c2)[C@]2(C(=O)N3)[C@H](c3ccc(O)cc3)N3[C@H](c4ccccc4)[C@H](c4ccccc4)OC(=O)[C@H]3[C@@H]2C(N)=O)cc1 | composite z-score | 0.0742 |
| NCCCCCCNC(=O)[C@@H]1C[C@@H]2C(=O)N[C@@H](Cc3ccccc3)C(=O)N2[C@@H]1c1ccc(O)cc1 | composite z-score | 0.915 |
| CCCC[C@@H](O)C1=C(C)C[C@H]2C(=O)N(C)C(=O)[C@H]2[C@H]1CO | composite z-score | -0.198 |

Ask: Which composite z-score value belongs to COc1ccc([Si](C)(C)[C@H]2[C@H](CCO)O[C@@]3(C(=O)N(Cc4ccc(N5C(=O)c6cccc7cccc5c67)cc4)c4ccccc43)[C@@H]2C)cc1 ?
Reply: 0.0741

Ask: Which composite z-score value belongs to C=CCN1C(=O)[C@@]2(O[C@@H](CCO)[C@H]([Si](C)(C)c3ccc(OC)cc3)[C@H]2C)c2cc(N(C=O)c3ccccc3)ccc21 ?
Reply: 0.222

Ask: Which composite z-score value belongs to COC(=O)c1c2oc(c1C(=O)OC)C(=O)N[C@@H](C(C)C)Cn1nncc1C1(CCCCC1)NC(=O)N[C@H](CO)CC2 ?
Reply: -0.162

Ask: Which composite z-score value belongs to C[N+](C)(C)CCCC[C@@H]1NC(=O)[C@@H]2C[C@H](C(=O)NCCCCCNC(=O)CS)[C@H](c3ccc(O)cc3)N2C1=O ?
Reply: 0.453

Ask: Which composite z-score value belongs to COc1ccc(C(=O)Nc2cccc(CN3C(=O)[C@@]4(O[C@@H](CCO)[C@H]([Si](C)(C)c5ccc(OC)cc5)[C@H]4C)c4ccccc43)c2)cc1 ?
Reply: 0.0002

Ask: Which composite z-score value belongs to CC(C)CNC(=O)[C@@H]1c2ccccc2C(=O)N(Cc2ccc(OC(F)(F)F)cc2)[C@H]1c1ccc(CO)cc1 ?
Reply: 0.0712

Ask: Which composite z-score value belongs to O=C(N1CCCCC1)[C@@]1(Cc2ccccc2)N=C(c2ccc(OCCCO)cc2)O[C@H]1c1ccccc1 ?
Reply: 0.849
